Known Kd of a selection of binders
- TARGET_UNDER_TEST: T1, recombinant human HER2 extracellular domain protein (human, UniProt P04626 23-652)
- T1 construct: range 23-652; Range is printed for the immunogen/panning protein; also called ErbB2; recombinant HER2 protein
- PROTOCOL_DESCRIPTION: BLI (ForteBio)
Quick note: give the figure in nM, leave out the unit.

Reference set (3 entries):
INSERT INTO results (binder, reading) VALUES
  ('Mu2117KH (Fc fusion, scFv-hIgG1 Fc fusion of mAb2117 V regions, VL-(G4S)3-VH; also called chimeric single-chain antibody control; not shown: human IgG1 Fc) scFv: DVVLTQTPLSLPVSLGDQASISCRSSQSLVHSNGNTYLHWYLQKPGQSPKLLIYKVSNRFSGVPDRFSGSGSGTDFTLKISRVEAEDLGVYFCSQSTHVPYTFGGGTKLEIKGGGGSGGGGSGGGGSEVKIEESGGGLVKPGGSLKLSCAASGFTYSSYGMSWVRQTPEKRLEWVASISGGGSYTKYPDSVKGRFTISRDNAKNHLYLQMSSLRSEDTALYYCARDYAGFFDVWGAGTTVTVSS', 77.2),
  ('Mu2117HK (Fc fusion, scFv-hIgG1 Fc fusion of mAb2117 V regions, VH-(G4S)3-VL; also called chimeric single-chain antibody control; not shown: human IgG1 Fc) scFv: EVKIEESGGGLVKPGGSLKLSCAASGFTYSSYGMSWVRQTPEKRLEWVASISGGGSYTKYPDSVKGRFTISRDNAKNHLYLQMSSLRSEDTALYYCARDYAGFFDVWGAGTTVTVSSGGGGSGGGGSGGGGSDVVLTQTPLSLPVSLGDQASISCRSSQSLVHSNGNTYLHWYLQKPGQSPKLLIYKVSNRFSGVPDRFSGSGSGTDFTLKISRVEAEDLGVYFCSQSTHVPYTFGGGTKLEIK', 76),
  ('Hu2117KH (Fc fusion, not shown: human IgG1 Fc) scFv: DIQMTQSPSSLSASVGDRVTITCRSSQSLVHSNGNTYLHWYQQKPGKAPKLLIYKVSNRFSGVPSRFSGSGSGTDFTLTISSLQPEDFATYFCSQSTHVPYTFGQGTKVEIKGGGGSGGGGSGGGGSEVQLVESGGGLVQPGGSLRLSCAASGFTYSSYGMSWVRQAPGKGLEWVASISGGGSYTKYPDSVKGRFTISRDNSKNTLYLQMNSLRAEDTAVYYCARDYAGFFDVWGQGTLVTVSS', 147);

Now consider a different binder.
Given Hu2117HK (Fc fusion, Hu2117-H1 + Hu2117-K1; also called hu2117-H1K1; humanized single-chain antibody Hu2117HK; not shown: human IgG1 Fc) scFv: EVQLVESGGGLVQPGGSLRLSCAASGFTYSSYGMSWVRQAPGKGLEWVASISGGGSYTKYPDSVKGRFTISRDNSKNTLYLQMNSLRAEDTAVYYCARDYAGFFDVWGQGTLVTVSSGGGGSGGGGSGGGGSDIQMTQSPSSLSASVGDRVTITCRSSQSLVHSNGNTYLHWYQQKPGKAPKLLIYKVSNRFSGVPSRFSGSGSGTDFTLTISSLQPEDFATYFCSQSTHVPYTFGQGTKVEIK , state its recorded Kd. 178

Data provenance is patent EP4725969A1.
